Give growth for every item shown.
# Tested on: DU-145 prostate
# MEASUREMENT DESCRIPTION: NCI-60 one-dose screen, 48 h (100 = growth as untreated, 0 = no growth, -100 = all killed)
# TEST CONTEXT: 10 µM unless noted
This is part of a sample that, as a whole, favours compounds with a hit. Of some 83,000 tested, about 20% had one in any assay.
Give the quantity in %, number only.

(Q) Using known records, supply growth for Cn1cccc1C(=O)C1C(c2cccc([N+](=O)[O-])c2)C2C3CCCCC3CN2C12C(=O)Nc1ccc(Cl)cc12 (stereo not given)
(A) 38.7

(Q) Using known records, supply growth for `O=c1c2cc(-c3ccccc3)sc2nc2sc(-c3ccccc3)nn12`
(A) 103

(Q) Using known records, supply growth for `CO[C@]12C=C/C(=C(/C(=O)OCc3cccnc3)C(=O)CCCCCCCC[C@@]3(OC)C=C/C(=C(/C(=O)OCc4cccnc4)C(=O)CCCCCCCC1)O3)O2`
(A) 20

(Q) Using known records, supply growth for `CC(=O)N(N=Nc1ccccc1)c1cccc2ccccc12`
(A) 9.87

(Q) Using known records, supply growth for Cc1ccc(C(C(N)=O)C(C(N)=O)c2ccccc2)cc1 (stereo not given)
(A) 111
